- target: human cholecystokinin-2 receptor (CCK-2R) (Homo sapiens, UniProt P32239)
- Construct: host or cells: 1321-N1 cells (plasma membranes prepared by Evotec AG Hamburg)
- Sequence (P32239 1-447): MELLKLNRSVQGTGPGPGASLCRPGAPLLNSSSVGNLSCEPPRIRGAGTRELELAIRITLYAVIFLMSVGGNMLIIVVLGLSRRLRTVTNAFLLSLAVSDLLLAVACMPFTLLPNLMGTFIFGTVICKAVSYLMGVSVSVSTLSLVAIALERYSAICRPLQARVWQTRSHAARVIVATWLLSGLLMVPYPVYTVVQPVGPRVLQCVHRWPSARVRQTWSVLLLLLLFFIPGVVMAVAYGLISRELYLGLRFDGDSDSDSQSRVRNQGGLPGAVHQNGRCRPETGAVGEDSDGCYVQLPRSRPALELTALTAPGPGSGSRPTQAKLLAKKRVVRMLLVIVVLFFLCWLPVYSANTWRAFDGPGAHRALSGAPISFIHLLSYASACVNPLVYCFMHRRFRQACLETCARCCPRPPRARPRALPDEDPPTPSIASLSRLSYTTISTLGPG
- assay info: In vitro receptor binding to CCK-2R, SPA displacement of [125I]-CCK-8s from plasma membranes
- setup conditions: displacement of [125I]-CCK-8s, plasma membranes of 1321-N1 cells expressing CCK-2R; highest dose tested 1×10^7 pM; read-out: IC50 (CCK-2R)
Starred links: 1 amine or outer side, 2 acyl side, 3 side chain; linkers in the order of their positions; H or OH if unused. Non-standard residues stand in square brackets, D forms with d. Residues, ends and D or L forms follow the SMILES beside them. *: point of attachment. Phe(4-CH2SO3H) = N[C@@H](Cc1ccc(CS(=O)(=O)O)cc1)C(=O)O; C20 diacid = O=C(O)CCCCCCCCCCCCCCCCCCC(=O)*; sY = N[C@@H](Cc1ccc(OS(=O)(=O)O)cc1)C(=O)O; C18 diacid = O=C(O)CCCCCCCCCCCCCCCCC(=O)*; d(βAsp) = O=C(O)[C@@H](CC(=O)[*:2])N[*:1]; γGlu = O=C(O)[C@H](CCC(=O)[*:2])N[*:1]; NMeF = CN[C@@H](Cc1ccccc1)C(=O)O; dNMeD = CN[C@H](CC(=O)O)C(=O)O; Nle = CCCC[C@H](N)C(=O)O; AEEA = NCCOCCOCC(=O)O
Quick reference for IC50 among some molecules

Past entries and their recorded results:
molecule: CCCC[C@H](NC(=O)[C@H](Cc1c[nH]c2ccccc12)NC(=O)CNC(=O)[C@H](Cc1c[nH]cn1)NC(=O)[C@H](Cc1ccc(OS(=O)(=O)O)cc1)NC(=O)[C@@H](N)CC(=O)O)C(=O)N(C)[C@H](CC(=O)O)C(=O)N(C)[C@@H](Cc1ccccc1)C(N)=O [Example 82] (H-D[sY]HGW[Nle][dNMeD][NMeF]-NH2)
IC50: > 10 µM
--
molecule: CCCC[C@H](NC(=O)[C@H](Cc1c[nH]c2ccccc12)NC(=O)CNC(=O)[C@H](CC(C)C)NC(=O)[C@H](Cc1ccc(OS(=O)(=O)O)cc1)NC(=O)[C@@H](N)CCC(=O)O)C(=O)N(C)[C@H](CC(=O)O)C(=O)N[C@@H](Cc1ccccc1)C(N)=O [Example 90] (H-E[sY]LGW[Nle][dNMeD]F-NH2)
IC50: > 10 µM
--
molecule: CCCC[C@H](NC(=O)[C@H](Cc1c[nH]c2ccccc12)NC(=O)CNC(=O)[C@@H]1CCCN1C(=O)[C@H](Cc1ccc(OS(=O)(=O)O)cc1)NC(=O)[C@@H](N)CC(=O)O)C(=O)N(C)[C@H](CC(=O)O)C(=O)N(C)[C@@H](Cc1ccccc1)C(N)=O [Example 69] (H-D[sY]PGW[Nle][dNMeD][NMeF]-NH2)
IC50: > 10 µM

Tell me reported IC50 for CCCC[C@H](NC(=O)[C@H](Cc1c[nH]c2ccccc12)NC(=O)CNC(=O)[C@H](CC(C)C)NC(=O)[C@H](Cc1ccc(CS(=O)(=O)O)cc1)NC(=O)[C@H](CC(=O)O)NC(=O)COCCOCCNC(=O)COCCOCCNC(=O)CC[C@H](NC(=O)CCCCCCCCCCCCCCCCCCC(=O)O)C(=O)O)C(=O)N(C)[C@H](CC(=O)O)C(=O)N(C)[C@@H](Cc1ccccc1)C(N)=O [Example 35] ({C20 diacid-γGlu-AEEA-AEEA}-D[Phe(4-CH2SO3H)]LGW[Nle][dNMeD][NMeF]-NH2) , tested with human cholecystokinin-2 receptor (CCK-2R) (Homo sapiens, UniProt P32239).
> 10 µM

So what IC50 did CCCC[C@H](NC(=O)[C@H](Cc1c[nH]c2ccccc12)NC(=O)CNC(=O)[C@H](CC(C)C)NC(=O)[C@H](Cc1ccc(CS(=O)(=O)O)cc1)NC(=O)[C@@H](N)CC(=O)O)C(=O)N(C)[C@H](CC(=O)O)C(=O)N(C)[C@@H](Cc1ccccc1)C(N)=O [Example 57] (H-D[Phe(4-CH2SO3H)]LGW[Nle][dNMeD][NMeF]-NH2) get with human cholecystokinin-2 receptor (CCK-2R) (Homo sapiens, UniProt P32239)?
> 10 µM

Please provide the recorded IC50 for CCCC[C@H](NC(=O)[C@H](Cc1c[nH]c2ccccc12)NC(=O)CNC(=O)[C@@H](NC(=O)[C@H](Cc1ccc(OS(=O)(=O)O)cc1)NC(=O)[C@@H](N)CC(=O)O)[C@@H](C)CC)C(=O)N(C)[C@H](CC(=O)O)C(=O)N(C)[C@@H](Cc1ccccc1)C(N)=O [Example 81] (H-D[sY]IGW[Nle][dNMeD][NMeF]-NH2) , tested on human cholecystokinin-2 receptor (CCK-2R) (Homo sapiens, UniProt P32239).
> 10 µM

Fill in the recorded IC50 for this molecule, with human cholecystokinin-2 receptor (CCK-2R) (Homo sapiens, UniProt P32239) as test system: CCCC[C@H](NC(=O)[C@H](Cc1ccc(CS(=O)(=O)O)cc1)NC(=O)C[C@@H](NC(=O)COCCOCCNC(=O)COCCOCCNC(=O)CC[C@H](NC(=O)CCCCCCCCCCCCCCCCC(=O)O)C(=O)O)C(=O)O)C(=O)NCC(=O)N[C@@H](Cc1c[nH]c2ccccc12)C(=O)N[C@@H](CCCC)C(=O)N(C)[C@H](CC(=O)O)C(=O)N(C)[C@@H](Cc1ccccc1)C(N)=O [Example 27] ({C18 diacid-γGlu-AEEA-AEEA-d(βAsp)}-[Phe(4-CH2SO3H)][Nle]GW[Nle][dNMeD][NMeF]-NH2)
> 10 µM

// lookup IC50 | system=human cholecystokinin-2 receptor (CCK-2R) (Homo sapiens, UniProt P32239) | key= CCCC[C@H](NC(=O)[C@H](Cc1c[nH]c2ccccc12)NC(=O)CNC(=O)[C@H](Cc1ccccc1)NC(=O)[C@H](Cc1ccc(OS(=O)(=O)O)cc1)NC(=O)[C@@H](N)CC(=O)O)C(=O)N(C)[C@H](CC(=O)O)C(=O)N(C)[C@@H](Cc1ccccc1)C(N)=O [Example 78] (H-D[sY]FGW[Nle][dNMeD][NMeF]-NH2)
0.92 µM
